Data provenance: BindingDB's records for doi:10.1002/cbic.200900750

Consider the following IC50 values measured on Alpha-mannosidase 2 (Drosophila melanogaster, UniProt Q24451).
Sequence (Q24451 whole entry): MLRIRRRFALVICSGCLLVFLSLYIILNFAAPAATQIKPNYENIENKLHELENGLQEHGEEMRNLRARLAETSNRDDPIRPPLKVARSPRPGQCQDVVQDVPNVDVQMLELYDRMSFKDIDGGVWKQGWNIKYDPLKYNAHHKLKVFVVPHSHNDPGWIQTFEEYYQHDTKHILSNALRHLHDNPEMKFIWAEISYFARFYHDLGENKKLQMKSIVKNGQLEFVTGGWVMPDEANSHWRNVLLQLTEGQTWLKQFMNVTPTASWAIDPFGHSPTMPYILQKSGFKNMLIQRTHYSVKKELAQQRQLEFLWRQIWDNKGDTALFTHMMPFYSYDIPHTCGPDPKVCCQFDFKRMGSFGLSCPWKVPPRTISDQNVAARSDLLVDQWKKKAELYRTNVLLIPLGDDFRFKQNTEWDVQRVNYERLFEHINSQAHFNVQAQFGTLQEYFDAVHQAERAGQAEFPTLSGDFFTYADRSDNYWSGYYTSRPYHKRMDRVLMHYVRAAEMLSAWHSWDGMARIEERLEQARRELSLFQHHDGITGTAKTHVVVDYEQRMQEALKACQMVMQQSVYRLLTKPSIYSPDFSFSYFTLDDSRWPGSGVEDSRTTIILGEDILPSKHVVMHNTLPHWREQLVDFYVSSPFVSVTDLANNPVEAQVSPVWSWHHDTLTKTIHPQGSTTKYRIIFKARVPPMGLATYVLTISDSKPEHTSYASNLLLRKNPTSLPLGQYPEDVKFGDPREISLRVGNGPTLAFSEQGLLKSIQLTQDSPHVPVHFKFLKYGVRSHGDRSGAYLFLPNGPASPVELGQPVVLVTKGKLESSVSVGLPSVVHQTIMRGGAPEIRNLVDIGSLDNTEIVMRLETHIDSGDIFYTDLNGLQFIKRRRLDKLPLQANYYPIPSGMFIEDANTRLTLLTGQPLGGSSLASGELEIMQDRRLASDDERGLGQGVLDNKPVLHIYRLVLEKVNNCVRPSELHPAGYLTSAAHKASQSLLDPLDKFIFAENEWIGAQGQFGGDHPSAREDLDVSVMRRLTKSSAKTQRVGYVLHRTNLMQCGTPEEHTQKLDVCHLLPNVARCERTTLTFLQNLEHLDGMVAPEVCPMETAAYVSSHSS
Please answer in the form of a number followed by its unit of measurement.

Use these answered entries as a reference point.
Cc1ccc(C(=O)C[C@H]2CC[C@@H](O)C3[C@H](O)[C@H](O)CN32)cc1 (some centres undefined); 29 nM
CC(C)(C)c1ccc(C(=O)C[C@H]2CC[C@@H](O)C3[C@H](O)[C@H](O)CN32)cc1 (some centres undefined); 29 nM
O[C@H]1[C@H]2[C@H](O)CCCN2C[C@H]1O [(-)-swainsonine]; 37 nM

Query molecule follows.
Given item O=C(C[C@H]1CC[C@@H](O)C2[C@H](O)[C@H](O)CN21)c1ccccc1 (some centres undefined) , the value recorded as its IC50 is 30 nM

* * *

- EXPERIMENTAL TARGET: Alpha-mannosidase 2 (Drosophila melanogaster, UniProt Q24451)
ASSAY READOUT: Ki (nM)
State the answer as a number, implicitly in nM.

Form field, Ki with Alpha-mannosidase 2 (Drosophila melanogaster, UniProt Q24451), item O[C@H]1[C@H]2[C@H](O)CCCN2C[C@H]1O [(-)-swainsonine] : 3
